assay: Oral bioavailability in Sprague-Dawley rat at 3 mg/kg measured for 24 hrs by LC-MS/MS analysis; format: ADME, organism-based; conditions: in vivo
Endpoint label: bioavailability (%)

                           smiles_structure   endpoint_label  reported_value
0  Nc1ncc(-c2cn(C34CC(F)(C3)C4)c([C@@H](O)C(F)(F)F)n2)cc1OC(F)(F)F  bioavailability              95

----------
assay: Permeability in wild type MDCK cells across basolateral to apical side at 5 uM incubated for 90 mins by LC-MS/MS analysis; format: ADME, cell-based, Canis lupus familiaris; conditions: dog, read-out: permeability
Endpoint label: Papp B→A at 1.5 h, 5 µM (×10⁻⁶ cm/s)

>>> print(df.to_string())
                           smiles_structure  reported_value
0  Nc1ncc(-c2cn(C34CC(F)(C3)C4)c([C@@H](O)C(F)(F)F)n2)cc1OC(F)(F)F              31

----------
assay: Cmax in cynomolgus monkey at 1 mg/kg, po or 0.3 mg/kg, iv measured for 24 hrs by LC-MS/MS analysis; format: ADME, organism-based, Macaca fascicularis; set-up: dose 1 mg/kg, time 24 hrs, route po; conditions: in vivo
Endpoint label: Cmax (µM)

>>> print(df.to_string())
                           smiles_structure  endpoint_unit  reported_value
0  Nc1ncc(-c2cn(C34CC(F)(C3)C4)c([C@@H](O)C(F)(F)F)n2)cc1OC(F)(F)F             µM            0.35

----------
experiment: Plasma protein binding in rat at 5 uM incubated for 5 hrs by rapid equilibrium dialysis method; type: ADME, cell-free; details: read-out: PPB (converted)
Endpoint label: fraction unbound at 5 h, 5 µM

>>> print(df.to_string())
                           smiles_structure                 endpoint_label  reported_value
0  Nc1ncc(-c2cn(C34CC(F)(C3)C4)c([C@@H](O)C(F)(F)F)n2)cc1OC(F)(F)F  fraction unbound at 5 h, 5 µM           0.118

----------
test: Metabolic stability in mouse liver microsomes assessed as intrinsic clearance at 1 uM in presence of NADPH regenerating system measured for 45 mins by LC-MS/MS analysis; format: ADME, Microsome; conditions: read-out: CLH
Lab note: class by CLint scaled at 1 µM, see lo: < 10 mL/min/kg; med: ≥ 10 mL/min/kg and < 30 mL/min/kg; hi: ≥ 30 mL/min/kg

>>> df
                           smiles_structure  category_label
0  Nc1ncc(-c2cn(C34CC(N5CCOCC5)(C3)C4)c(C3CC3)n2)cc1OC(F)(F)F             med
1  Nc1ncc(-c2cn(C34CC(C3)C4)c([C@@H](O)C(F)(F)F)n2)cc1OC(F)(F)F             med
2  CC(C)c1nc(-c2cnc(N)c(C(F)(F)F)c2)cn1C1CCC1              hi
3  Nc1ncc(-c2cn(C34CC(F)(C3)C4)c([C@@H](O)C(F)(F)F)n2)cc1OC(F)(F)F             med
4  Nc1ncc(-c2cn(C34CC(N5CCOCC5)(C3)C4)c(C3CC3)n2)cc1C(F)(F)F             med
5  CC(C)[C@H](O)c1nc(-c2cnc(N)c(OC(F)(F)F)c2)cn1C12CC(N3CCOCC3)(C1)C2              lo
6  CC(C)c1nc(-c2cnc(N)c(C(F)(F)F)c2)cn1C12CC(C1)C2              hi
7  CC(C)c1nc(-c2cnc(N)c(C(F)(F)F)c2)cn1C1CCCC1              hi
8  CC(C)c1nc(-c2cnc(N)c(C(F)(F)F)c2)cn1C12CC(N3CCOCC3)(C1)C2              lo
9  CC(C)c1nc(-c2cnc(N)c(OC(F)(F)F)c2)cn1C12CC(N3CCOCC3)(C1)C2              lo
